Target System: T1, full-length beta-Catenin (Uniprot ID P35222) (Homo sapiens (Human), UniProt P35222 1-781)
T1 construct: The assay text says full-length; also called bCat; B-Catenin
T1 sequence: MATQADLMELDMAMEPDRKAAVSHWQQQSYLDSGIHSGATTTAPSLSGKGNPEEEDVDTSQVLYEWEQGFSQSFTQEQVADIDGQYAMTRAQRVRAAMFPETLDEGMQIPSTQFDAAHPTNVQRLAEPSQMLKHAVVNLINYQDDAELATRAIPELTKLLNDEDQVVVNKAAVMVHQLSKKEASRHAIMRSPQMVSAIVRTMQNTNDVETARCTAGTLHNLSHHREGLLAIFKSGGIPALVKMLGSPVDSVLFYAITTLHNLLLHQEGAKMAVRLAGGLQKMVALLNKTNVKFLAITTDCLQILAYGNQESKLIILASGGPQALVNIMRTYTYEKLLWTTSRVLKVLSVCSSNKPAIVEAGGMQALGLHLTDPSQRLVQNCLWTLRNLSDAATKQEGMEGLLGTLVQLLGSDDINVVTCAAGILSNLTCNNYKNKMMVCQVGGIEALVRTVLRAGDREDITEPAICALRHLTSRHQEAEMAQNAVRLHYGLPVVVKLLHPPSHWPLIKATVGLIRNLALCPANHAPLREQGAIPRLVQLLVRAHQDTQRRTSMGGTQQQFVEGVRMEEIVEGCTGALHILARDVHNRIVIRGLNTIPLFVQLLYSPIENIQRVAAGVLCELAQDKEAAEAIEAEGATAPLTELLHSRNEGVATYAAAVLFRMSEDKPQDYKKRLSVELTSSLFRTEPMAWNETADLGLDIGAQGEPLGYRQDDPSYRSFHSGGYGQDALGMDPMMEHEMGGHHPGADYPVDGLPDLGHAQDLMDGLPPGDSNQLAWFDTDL
Test Name: fluorescence polarization competition; full-length beta-catenin with 5FAM-TCF4(10-53) probe as competitor
Starred links: 1 amine or outer side, 2 acyl side, 3 side chain; linkers in the order of their positions; H or OH if unused. Positions of bridges follow the written chain, without caps; N, C: chain ends. Non-standard residues stand in square brackets, D forms with d. B5 = 2-amino-2-(pent-4-en-1-yl)hept-6-enoic acid, C=CCCCC(CCCC=C)(N[*:1])C(=O)[*:2]; Bta = N[C@@H](Cc1csc2ccccc12)C(=O)O; αAllylPro = C=CC[C@@]1(C(=O)O)CCCN1; S8 = C=CCCCCCC[C@](C)(N)C(=O)O
log10 IC50: recorded values
Short version: log10 scale, IC50, nM.

# example entries with known answers
Binder	log10 IC50
XDIXDRAAFQXFXQ (not fully specified; N-terminal Ac; PL3 (pos 1), B5 (pos 4), S8 (pos 11) stapled (PL3-B5 and B5-S8); BztA (pos 13); C-terminal NH2, Stapled peptide; also called Ac-PL3-Asp-Ile-B5-Asp-Arg-Ala-Ala-Phe-Gln-S8-Phe-BztA-Gln-NH2) [I-614]	3.06
XDLXDEAAFTXFXQ (not fully specified; N-terminal Ac; PL3 (pos 1), B5 (pos 4), S8 (pos 11) stapled (PL3-B5 and B5-S8); BztA (pos 13); C-terminal NH2, Stapled peptide; also called Ac-PL3-Asp-Leu-B5-Asp-Glu-Ala-Ala-Phe-Thr-S8-Phe-BztA-Gln-NH2) [I-623]	2.01
Ac-[αAllylPro]DI[B5]DQAAFQ[S8]F[Bta]Q-NH2 (staple 1-4, 4-11, Stapled peptide; also called Ac-PL3-Asp-Ile-B5-Asp-Gln-Ala-Ala-Phe-Gln-S8-Phe-BztA-Gln-NH2) [I-603]	2.59
XDIXDRAAFQXFXQ (not fully specified; N-terminal Ac; PL3 (pos 1), B5 (pos 4), S8 (pos 11) stapled (PL3-B5 and B5-S8); BztA (pos 13); C-terminal NH2, Stapled peptide; also called Ac-PL3-Asp-Ile-B5-Asp-Arg-Ala-Ala-Phe-Gln-S8-Phe-BztA-Gln-NH2) [I-613]	3.21

# evaluate next
Summary for this binder, XDLXDEAAFTXFXH (not fully specified; N-terminal Ac; PL3 (pos 1), B5 (pos 4), S8 (pos 11) stapled (PL3-B5 and B5-S8); BztA (pos 13); C-terminal NH2, Stapled peptide; also called Ac-PL3-Asp-Leu-B5-Asp-Glu-Ala-Ala-Phe-Thr-S8-Phe-BztA-His-NH2) [I-617] : log10 IC50 is 2.40
